- System: ABC-1
- ASSAY_PROCEDURE: relative viability (nuclei count vs DMSO), 5 days (fraction); higher = more cells survive
- TEST_CONTEXT: first compound 0.005 µM
Task for the reader: assign each of the following compounds its reported relative viability.
Give bare numbers.

compound="COc1cc2nccc(Oc3ccc(NC(=O)Nc4cc(C)on4)c(Cl)c3)c2cc1OC [Tivozanib] + CS(=O)(=O)CCNCc1ccc(-c2ccc3ncnc(Nc4ccc(OCc5cccc(F)c5)c(Cl)c4)c3c2)o1 [Lapatinib] (partner 2 µM)" readout_type="relative viability" numeric_readout=1.33

Consider the record given below.
-- ask Given the compound Nc1ccn([C@@H]2O[C@H](CO)[C@@H](O)[C@@H]2O)c(=O)n1 [Cytarabine] + CS(=O)(=O)N1CCN(Cc2cc3nc(-c4cccc5[nH]ncc45)nc(N4CCOCC4)c3s2)CC1 [Pictilisib] (partner 1 µM) , what is its reported relative viability?
-- reply 0.939
